Where do these numbers come from? They come from ChEMBL document CHEMBL3091350.

System: Plasmodium falciparum
Experiment: Antimalarial activity against chloroquine-sensitive Plasmodium falciparum 3D7 assessed as parasite growth inhibition after 48 hrs by SYBR green-1 dye-based fluorescence assay
Assay type: functional, organism-based
Conditions: 3D7, 48 h
In this section, each of the compounds is paired with its reported IC50.
Your reply should be a number followed by the unit it is expressed in.

# example entries with known answers
compound | IC50
O=C(CC1CCC2(CC1)OOC1(OO2)C2CC3CC(C2)CC1C3)Nc1ccc(NC(=O)CC2CCC3(CC2)OOC2(OO3)C3CC4CC(C3)CC2C4)cc1 (stereo unspecified) | 0.0584 µM
O=C(CC1CCC2(CC1)OOC1(OO2)C2CC3CC(C2)CC1C3)NCCCCNC(=O)CC1CCC2(CC1)OOC1(OO2)C2CC3CC(C2)CC1C3 (stereo unspecified) | 0.0112 µM
O=C(CC1CCC2(CC1)OOC1(CCCCC1)OO2)NCCCCNC(=O)CC1CCC2(CC1)OOC1(CCCCC1)OO2 | 0.0289 µM
CC1(CCC(=O)NCCCN2CCN(CCCNC(=O)CCC3(C)OOC4(CCCCC4)OO3)CC2)OOC2(CCCCC2)OO1 (stereo unspecified) | 0.0475 µM
O=C(CC1CCC2(CC1)OOC1(OO2)C2CC3CC(C2)CC1C3)NCc1cccc(CNC(=O)CC2CCC3(CC2)OOC2(OO3)C3CC4CC(C3)CC2C4)c1 (stereo unspecified) | 0.004 µM

Query: IC50; subject: CC1(CCC(=O)NCc2cccc(CNC(=O)CCC3(C)OOC4(CCCCC4)OO3)c2)OOC2(CCCCC2)OO1 (stereo unspecified) 0.416 µM

I have this compound here, C[C@H]1[C@@H](O)O[C@@H]2O[C@@]3(C)CC[C@H]4[C@H](C)CC[C@@H]1[C@@]24OO3 [ARTENIMOL] , and I need its recorded IC50. 0.0035 µM

Value lookup for IC50; key = O=C(CC1CCC2(CC1)OOC1(OO2)C2CC3CC(C2)CC1C3)NCCCNC(=O)CC1CCC2(CC1)OOC1(OO2)C2CC3CC(C2)CC1C3 (stereo unspecified) 0.0047 µM

Need IC50 of O=C(CC1CCC2(CC1)OOC1(OO2)C2CC3CC(C2)CC1C3)NCCNC(=O)CC1CCC2(CC1)OOC1(OO2)C2CC3CC(C2)CC1C3 (stereo unspecified) , thanks. 0.0169 µM

So what's the measured IC50 for this one? O=C(CC1CCC2(CC1)OOC1(OO2)C2CC3CC(C2)CC1C3)Nc1cccc(NC(=O)CC2CCC3(CC2)OOC2(OO3)C3CC4CC(C3)CC2C4)c1 (stereo unspecified) 0.0572 µM

State the recorded IC50 for this entry: O=C(CC1CCC2(CC1)OOC1(CCCCC1)OO2)NCCCNC(=O)CC1CCC2(CC1)OOC1(CCCCC1)OO2 0.0213 µM

Look up IC50: O=C(CC1CCC2(CC1)OOC1(CCCCC1)OO2)NCCCN1CCN(CCCNC(=O)CC2CCC3(CC2)OOC2(CCCCC2)OO3)CC1 0.0471 µM

What measured IC50 goes with O=C(CC1CCC2(CC1)OOC1(OO2)C2CC3CC(C2)CC1C3)NCCCN1CCN(CCCNC(=O)CC2CCC3(CC2)OOC2(OO3)C3CC4CC(C3)CC2C4)CC1 (stereo unspecified) ? 0.0035 µM

Tell me the measured IC50 of C[C@H]1[C@H](OC(=O)CCC(=O)O)O[C@@H]2O[C@@]3(C)CC[C@H]4[C@H](C)CC[C@@H]1[C@@]24OO3 [ARTESUNATE] , please. 0.0016 µM

GET /values?readout=IC50&item= O=C(CC1CCC2(CC1)OOC1(CCCCC1)OO2)NCc1cccc(CNC(=O)CC2CCC3(CC2)OOC2(CCCCC2)OO3)c1 0.0386 µM

Recorded IC50 for CC1(CCC(=O)Nc2cccc(N)c2)OOC2(CCCCC2)OO1 , please? 0.102 µM

---

// reported inhibition in vivo at 10 mg/kg per item
System: Plasmodium berghei
Assay: Antimalarial activity against Plasmodium berghei ANKA infected in mouse assessed as inhibition of parasitemia at 10 mg/kg, po administered for 3 days post-infection measured on day 4 by Giemsa staining relative to control
Type: functional
Give just the number in %; leave the unit off.

molecule | test.target | inhibition in vivo at 10 mg/kg [%]
O=C(CC1CCC2(CC1)OOC1(OO2)C2CC3CC(C2)CC1C3)NCCCN1CCN(CCCNC(=O)CC2CCC3(CC2)OOC2(OO3)C3CC4CC(C3)CC2C4)CC1 (stereo not given) | Plasmodium berghei | 46.2
O=C(CC1CCC2(CC1)OOC1(OO2)C2CC3CC(C2)CC1C3)NCCCCNC(=O)CC1CCC2(CC1)OOC1(OO2)C2CC3CC(C2)CC1C3 (stereo not given) | Plasmodium berghei | 49.6
C[C@H]1[C@H](OC(=O)CCC(=O)O)O[C@@H]2O[C@@]3(C)CC[C@H]4[C@H](C)CC[C@@H]1[C@@]24OO3 [ARTESUNATE] | Plasmodium berghei | 95.2
O=C(CC1CCC2(CC1)OOC1(CCCCC1)OO2)NCCCN1CCN(CCCNC(=O)CC2CCC3(CC2)OOC2(CCCCC2)OO3)CC1 | Plasmodium berghei | 54.3

State the recorded inhibition in vivo at 10 mg/kg for this entry: CC1(CCC(=O)NCCCN2CCN(CCCNC(=O)CCC3(C)OOC4(CCCCC4)OO3)CC2)OOC2(CCCCC2)OO1 (stereo not given) 21.4

---

Assay: Therapeutic index, ratio of IC50 for human KB cells to IC50 for chloroquine-resistant Plasmodium falciparum K1
Format: cell-based
Conditions: read-out: Ratio IC50
Criterion: selectivity ratio meeting or surpassing 1000. Met: yes (1). Not met: no (0).

Check out these entries, answers already filled in.
compound | label.class
O=C(CC1CCC2(CC1)OOC1(OO2)C2CC3CC(C2)CC1C3)NCCNC(=O)CC1CCC2(CC1)OOC1(OO2)C2CC3CC(C2)CC1C3 (stereo unspecified) | yes (1)
O=C(CC1CCC2(CC1)OOC1(OO2)C2CC3CC(C2)CC1C3)NCCCCNC(=O)CC1CCC2(CC1)OOC1(OO2)C2CC3CC(C2)CC1C3 (stereo unspecified) | yes (1)
O=C(CC1CCC2(CC1)OOC1(OO2)C2CC3CC(C2)CC1C3)Nc1cccc(NC(=O)CC2CCC3(CC2)OOC2(OO3)C3CC4CC(C3)CC2C4)c1 (stereo unspecified) | yes (1)
CC1(CCC(=O)NCCCN2CCN(CCCNC(=O)CCC3(C)OOC4(CCCCC4)OO3)CC2)OOC2(CCCCC2)OO1 (stereo unspecified) | no (0)

selectivity ratio >= 1000 for CC1(CCC(=O)NCc2cccc(CNC(=O)CCC3(C)OOC4(CCCCC4)OO3)c2)OOC2(CCCCC2)OO1 (stereo unspecified) ? no (0)

Item O=C(CC1CCC2(CC1)OOC1(OO2)C2CC3CC(C2)CC1C3)NCCCNC(=O)CC1CCC2(CC1)OOC1(OO2)C2CC3CC(C2)CC1C3 (stereo unspecified) with selectivity ratio of 1000 or above? yes (1)

---

Tested on: Plasmodium berghei
Assay: Antimalarial activity against Plasmodium berghei ANKA infected in po dosed mouse assessed as inhibition of parasitemia administered for 3 days post-infection measured on day 4 by Giemsa staining
Type: functional
endpoint.label: ED50 (mg/kg)
The reply should be a number in mg/kg, with the unit left off.

Reference set (3 entries):
molecule | endpoint.label | numeric.value
O=C(CC1CCC2(CC1)OOC1(CCCCC1)OO2)NCCCN1CCN(CCCNC(=O)CC2CCC3(CC2)OOC2(CCCCC2)OO3)CC1 | ED50 | 6.4
O=C(CC1CCC2(CC1)OOC1(OO2)C2CC3CC(C2)CC1C3)NCCCN1CCN(CCCNC(=O)CC2CCC3(CC2)OOC2(OO3)C3CC4CC(C3)CC2C4)CC1 (stereo not given) | ED50 | 7.7
O=C(CC1CCC2(CC1)OOC1(OO2)C2CC3CC(C2)CC1C3)NCCCCNC(=O)CC1CCC2(CC1)OOC1(OO2)C2CC3CC(C2)CC1C3 (stereo not given) | ED50 | 16.1

Consider the record given below.
State the recorded ED50 for this entry: C[C@H]1[C@H](OC(=O)CCC(=O)O)O[C@@H]2O[C@@]3(C)CC[C@H]4[C@H](C)CC[C@@H]1[C@@]24OO3 [ARTESUNATE] 1.6
